biological target: COX-1 (UniProt P23219); assay: COX-1 activity in vitro (PGE2 ELISA, recombinant enzyme); details: recombinant COX-1, arachidonic acid 10 μM
measurement_label: IC50 (µM)

1 = NC(=O)N(O)Cc1cc(-c2ccc(Cl)cc2)n(-c2ccc(S(N)(=O)=O)cc2)n1 [Example 1]
2 = NS(=O)(=O)c1ccc(-c2nc(CCCC(=O)NO)oc2-c2ccc(Cl)c(Cl)c2)cc1 [Example 4]
stdin: Compare IC50: is it lower for 1 or for 2 ? // respond with label for picked entry
stdout: 2

---

Biological target: UniProt P35354
Sequence (P35354 1-604): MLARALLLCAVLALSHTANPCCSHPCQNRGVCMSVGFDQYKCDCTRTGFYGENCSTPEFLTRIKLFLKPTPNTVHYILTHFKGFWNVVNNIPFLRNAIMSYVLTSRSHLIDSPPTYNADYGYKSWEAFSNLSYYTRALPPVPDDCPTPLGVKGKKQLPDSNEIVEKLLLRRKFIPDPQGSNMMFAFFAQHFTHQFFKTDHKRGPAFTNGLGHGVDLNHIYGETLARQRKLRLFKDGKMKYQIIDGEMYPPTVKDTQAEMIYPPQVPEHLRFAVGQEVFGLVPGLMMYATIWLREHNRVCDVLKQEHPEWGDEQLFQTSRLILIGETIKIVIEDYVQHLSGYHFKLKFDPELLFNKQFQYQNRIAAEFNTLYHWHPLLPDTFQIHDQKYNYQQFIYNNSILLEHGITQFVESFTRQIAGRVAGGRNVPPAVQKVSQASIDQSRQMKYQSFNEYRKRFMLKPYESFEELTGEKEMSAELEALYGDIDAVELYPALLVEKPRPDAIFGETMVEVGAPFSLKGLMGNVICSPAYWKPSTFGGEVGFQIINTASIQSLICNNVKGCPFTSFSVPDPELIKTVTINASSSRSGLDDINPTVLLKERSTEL
Experiment: COX-2 activity in vitro (PGE2 ELISA, recombinant enzyme)
Type: biochemical, human or murine
Settings: recombinant COX-2, arachidonic acid 10 μM
pIC50: −log10 of the molar value.
measurement_label: pIC50

stdin: Give pIC50 for CN(O)C(=O)CCc1nc(-c2ccc(F)cc2)c(-c2ccc(S(C)(=O)=O)cc2)o1 [Example 2]
stdout: 5.29

a = NC(=O)N(O)Cc1cc(-c2ccc(Cl)cc2)n(-c2ccc(S(N)(=O)=O)cc2)n1 [Example 1]
b = NS(=O)(=O)c1ccc(-c2nc(CCCC(=O)NO)oc2-c2ccc(Cl)c(Cl)c2)cc1 [Example 4]
stdin: Please tell me which of the two, a or b , has the higher reported pIC50 value. // respond with label for picked entry
stdout: b
(b: 6.52, a: 5.18)

Just for reference, patent US20020028945A1 is where these values come from.
